Below, each entry is listed alongside its reported Plant response rating, Pigweed.
# Tested on: pigweed (Amaranthus retroflexus)
# procedure_summary: Test C postemergence
# Type: in vivo
# conditions: 31 g ai/ha, scale 0 to 100, 0 is no effect, 100 is complete control
quantity_kind: Plant response rating, Pigweed

query_smiles: O=c1cccc(Oc2ncc(Cl)cn2)n1-c1ccc(Cl)cc1
result_number: 95
//
query_smiles: O=c1cccc(Oc2ncc(Cl)cn2)n1-c1ccc(C(F)(F)F)cn1
result_number: 65
//
query_smiles: O=c1cccc(Oc2ncc(Cl)cn2)n1-c1ncc(Cl)cn1
result_number: 70
//
query_smiles: O=c1cccc(Oc2ncc(Cl)cn2)n1-c1ccc(C(F)(F)F)cc1
result_number: 90

###

# Test system: wild oat (Avena fatua)
# procedure_summary: Test C postemergence
# Format: in vivo
# conditions: 62 g ai/ha, scale 0 to 100, 0 is no effect, 100 is complete control
Below, each entry is listed alongside its reported Plant response rating, Oat, Wild.

molecule: O=c1cccc(Oc2ncc(Cl)cn2)n1-c1ccc(C(F)(F)F)cc1 [Compound 10]
Plant response rating, Oat, Wild: 15

molecule: O=c1cccc(Oc2ncc(Cl)cn2)n1-c1ccc(Cl)cc1 [Compound 1]
Plant response rating, Oat, Wild: 5

molecule: O=c1cccc(Oc2ncc(Cl)cn2)n1-c1ncc(Cl)cn1 [Compound 6]
Plant response rating, Oat, Wild: 0

molecule: O=c1cccc(Oc2ncc(Cl)cn2)n1-c1ccc(C(F)(F)F)cn1 [Compound 7]
Plant response rating, Oat, Wild: 5

###

# System: large (Lg) crabgrass (Digitaria sanguinalis)
# procedure_summary: Test C postemergence
# Assay type: in vivo
# conditions: 31 g ai/ha, scale 0 to 100, 0 is no effect, 100 is complete control
Below, each entry is listed alongside its reported Plant response rating, Crabgrass, Large.
quantity_kind: Plant response rating, Crabgrass, Large

query_smiles: O=c1cccc(Oc2ncc(Cl)cn2)n1-c1ccc(C(F)(F)F)cn1
quantity_kind: Plant response rating, Crabgrass, Large
result_number: 10
--
query_smiles: O=c1cccc(Oc2ncc(Cl)cn2)n1-c1ncc(Cl)cn1
quantity_kind: Plant response rating, Crabgrass, Large
result_number: 15
--
query_smiles: O=c1cccc(Oc2ncc(Cl)cn2)n1-c1ccc(Cl)cc1
quantity_kind: Plant response rating, Crabgrass, Large
result_number: 15
--
query_smiles: O=c1cccc(Oc2ncc(Cl)cn2)n1-c1ccc(C(F)(F)F)cc1
quantity_kind: Plant response rating, Crabgrass, Large
result_number: 35

###

# Tested on: oilseed rape (Brassica napus)
# procedure_summary: Test C preemergence
# Format: in vivo
# conditions: 62 g ai/ha, scale 0 to 100, 0 is no effect, 100 is complete control
quantity_kind: Plant response rating, Oilseed Rape

query_smiles: O=c1cccc(Oc2ncc(Cl)cn2)n1-c1ccc(C(F)(F)F)cn1
assay_system: oilseed rape (Brassica napus)
result_number: 85
--
query_smiles: O=c1cccc(Oc2ncc(Cl)cn2)n1-c1ccc(Cl)cc1
assay_system: oilseed rape (Brassica napus)
result_number: 10
--
query_smiles: O=c1cccc(Oc2ncc(Cl)cn2)n1-c1ncc(Cl)cn1
assay_system: oilseed rape (Brassica napus)
result_number: 98
--
query_smiles: O=c1cccc(Oc2ncc(Cl)cn2)n1-c1ccc(C(F)(F)F)cc1
assay_system: oilseed rape (Brassica napus)
result_number: 70

###

# System: winter wheat (Triticum aestivum)
# procedure_summary: Test C postemergence
# Format: in vivo
# conditions: 62 g ai/ha, scale 0 to 100, 0 is no effect, 100 is complete control
Below, each entry is listed alongside its reported Plant response rating, Wheat.

query_smiles: O=c1cccc(Oc2ncc(Cl)cn2)n1-c1ccc(C(F)(F)F)cc1
Plant response rating, Wheat: 10

query_smiles: O=c1cccc(Oc2ncc(Cl)cn2)n1-c1ccc(Cl)cc1
Plant response rating, Wheat: 5

query_smiles: O=c1cccc(Oc2ncc(Cl)cn2)n1-c1ccc(C(F)(F)F)cn1
Plant response rating, Wheat: 0

query_smiles: O=c1cccc(Oc2ncc(Cl)cn2)n1-c1ncc(Cl)cn1
Plant response rating, Wheat: 0

###

# Test system: lambsquarters (Chenopodium album)
# procedure_summary: Test C postemergence
# Assay type: in vivo
# conditions: 16 g ai/ha, scale 0 to 100, 0 is no effect, 100 is complete control
Below, each entry is listed alongside its reported Plant response rating, Lambsquarters.
quantity_kind: Plant response rating, Lambsquarters

query_smiles: O=c1cccc(Oc2ncc(Cl)cn2)n1-c1ncc(Cl)cn1
result: 20

query_smiles: O=c1cccc(Oc2ncc(Cl)cn2)n1-c1ccc(C(F)(F)F)cn1
result: 25

query_smiles: O=c1cccc(Oc2ncc(Cl)cn2)n1-c1ccc(Cl)cc1
result: 15

query_smiles: O=c1cccc(Oc2ncc(Cl)cn2)n1-c1ccc(C(F)(F)F)cc1
result: 65

###

# Test system: chickweed (common chickweed, Stellaria media)
# procedure_summary: Test C postemergence
# Type: in vivo
# conditions: 31 g ai/ha, scale 0 to 100, 0 is no effect, 100 is complete control
Below, each entry is listed alongside its reported Plant response rating, Chickweed.
quantity_kind: Plant response rating, Chickweed

molecule: O=c1cccc(Oc2ncc(Cl)cn2)n1-c1ccc(C(F)(F)F)cc1 [Compound 10]
assay_system: chickweed (common chickweed, Stellaria media)
result: 30
//
molecule: O=c1cccc(Oc2ncc(Cl)cn2)n1-c1ccc(C(F)(F)F)cn1 [Compound 7]
assay_system: chickweed (common chickweed, Stellaria media)
result: 20
//
molecule: O=c1cccc(Oc2ncc(Cl)cn2)n1-c1ncc(Cl)cn1 [Compound 6]
assay_system: chickweed (common chickweed, Stellaria media)
result: 55
//
molecule: O=c1cccc(Oc2ncc(Cl)cn2)n1-c1ccc(Cl)cc1 [Compound 1]
assay_system: chickweed (common chickweed, Stellaria media)
result: 10

###

Below, each entry is listed alongside its reported Plant response rating, Ducksalad.
# System: ducksalad (Heteranthera limosa)
# procedure_summary: Test B flooded paddy test
# Assay type: in vivo
# Parameters: key: 0 = no effect, 100 = complete control
# conditions: Flood, 250 g ai/ha applied to paddy water at 2-leaf stage; visually evaluated after 13 to 15 days; scale 0 (no effect) to 100 (complete control)

query_smiles: O=c1cccc(Oc2ncc(Cl)cn2)n1-c1ccc(C(F)(F)F)cn1
Plant response rating, Ducksalad: 100
--
query_smiles: O=c1cccc(Oc2ncc(Cl)cn2)n1-c1ncc(C(F)(F)F)cn1
Plant response rating, Ducksalad: 85
--
query_smiles: O=c1cccc(Oc2ncc(Cl)cn2)n1-c1ccc(Cl)cn1
Plant response rating, Ducksalad: 75
